Each entry below carries its reported interaction score.
# tested system: T1, 4H4038-AA
# T1 chain: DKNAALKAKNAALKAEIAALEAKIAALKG
# experiment description: two-hybrid library CCmax;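 note: natural log of median RNA to DNA barcode read ratio; higher means stronger binding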
# experimental parameters: mean of both orientations
No unit in the answer, only the number.

Consider the reported interaction score for these binders:
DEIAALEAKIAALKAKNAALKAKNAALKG [4H384-AA]	-1.15
DKNAALKAEIAALEAEIAALEAENAALEG [4H3587-AA]	-1.05
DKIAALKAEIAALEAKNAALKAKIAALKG [4H2622-AA]	-1.2
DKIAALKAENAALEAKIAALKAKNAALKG [4H2736-AA]	-0.154
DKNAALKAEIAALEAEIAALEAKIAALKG [4H3590-AA]	-0.327
DKNAALKAKIAALKAEIAALEAEIAALEG [4H3905-AA]	-0.568
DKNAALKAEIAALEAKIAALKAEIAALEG [4H3625-AA]	1.61
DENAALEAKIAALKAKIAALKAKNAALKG [4H1392-AA]	0.56
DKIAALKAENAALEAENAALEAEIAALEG [4H2705-AA]	0.153

Let us move to another entry and its interaction score.
q: Which interaction score value is on record for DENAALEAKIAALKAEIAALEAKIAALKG [4H1350-AA] ?
a: 0.909

Numbers sourced from paper PMC10397247.
